For each record, write down the corresponding scatter score 0-4, HPAF-II, 9.000 nM.
# studyTarget: native human MET on living cells (human, UniProt P08581 25-1390)
# Sequence (P08581 25-1390): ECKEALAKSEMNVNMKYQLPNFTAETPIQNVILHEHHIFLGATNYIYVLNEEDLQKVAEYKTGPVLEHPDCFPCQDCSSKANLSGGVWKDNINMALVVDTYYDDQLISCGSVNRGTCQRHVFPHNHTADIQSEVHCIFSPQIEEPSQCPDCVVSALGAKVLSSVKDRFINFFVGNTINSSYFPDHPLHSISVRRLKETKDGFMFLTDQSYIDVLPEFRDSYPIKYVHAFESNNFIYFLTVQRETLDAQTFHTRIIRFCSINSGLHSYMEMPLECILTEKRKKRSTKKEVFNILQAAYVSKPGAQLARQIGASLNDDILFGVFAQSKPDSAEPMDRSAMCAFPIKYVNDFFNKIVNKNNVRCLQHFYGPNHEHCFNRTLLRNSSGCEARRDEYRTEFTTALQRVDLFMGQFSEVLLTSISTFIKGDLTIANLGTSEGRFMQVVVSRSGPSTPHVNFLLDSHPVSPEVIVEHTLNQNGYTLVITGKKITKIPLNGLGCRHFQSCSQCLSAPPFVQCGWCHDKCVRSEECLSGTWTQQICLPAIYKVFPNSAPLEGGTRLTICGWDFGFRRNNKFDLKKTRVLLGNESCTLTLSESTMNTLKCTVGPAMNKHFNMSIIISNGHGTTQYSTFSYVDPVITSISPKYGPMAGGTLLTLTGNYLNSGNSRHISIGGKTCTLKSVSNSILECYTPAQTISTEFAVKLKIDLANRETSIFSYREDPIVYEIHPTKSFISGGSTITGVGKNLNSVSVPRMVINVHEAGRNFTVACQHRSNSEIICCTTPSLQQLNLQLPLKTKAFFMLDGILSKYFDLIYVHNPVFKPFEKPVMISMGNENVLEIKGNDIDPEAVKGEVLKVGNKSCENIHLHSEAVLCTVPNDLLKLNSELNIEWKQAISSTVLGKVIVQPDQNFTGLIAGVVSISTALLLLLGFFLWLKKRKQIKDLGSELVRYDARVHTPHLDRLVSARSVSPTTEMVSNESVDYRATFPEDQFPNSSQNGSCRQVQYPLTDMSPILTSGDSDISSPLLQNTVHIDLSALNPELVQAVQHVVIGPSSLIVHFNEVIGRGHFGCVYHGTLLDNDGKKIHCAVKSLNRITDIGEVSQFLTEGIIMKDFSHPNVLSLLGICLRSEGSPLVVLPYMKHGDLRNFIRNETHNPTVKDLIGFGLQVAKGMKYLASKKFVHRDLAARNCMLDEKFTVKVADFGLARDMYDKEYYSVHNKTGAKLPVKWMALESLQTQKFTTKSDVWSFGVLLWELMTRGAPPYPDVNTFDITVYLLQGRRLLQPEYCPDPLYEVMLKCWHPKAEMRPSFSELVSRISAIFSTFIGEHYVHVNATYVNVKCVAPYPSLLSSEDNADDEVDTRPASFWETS
# testMethodNotes: cell-based or functional assay
Answers are plain numbers, in score.

Solved entries:
74C8 chimeric llama-human IgG1 mAb (antibody, V domains shown, llama VH on human IgG1 CH1-CH2-CH3, llama VL on human lambda CL) VH: EVQLVESGGGLVQPGGSLRLSCAASGFTFRNYHMSWVRQVPGKGFEWISDINSAGGSTYYADSVKGRFTISRDNAKNTLYLEMNSLKPEDTALYYCARVNVWGVNYWGKGTLVSVSS VL: QTVVTQEPSLSVSPGGTVTLTCGLSSGSVTTSNYPGWFQQTPGQAPRTLIYNTNSRHSGVPSRFSGSISGNKAALTITGAQPEDEADYYCSLYPGSYTNVFGGGTHLTVL | 4
71D4 chimeric llama-human IgG1 mAb (antibody, V domains shown, llama VH on human IgG1 CH1-CH2-CH3, llama VL on human lambda CL) VH: ELQLVESGGGLVQPGGSLRLSCAASGFTFSGYGMSWVRQAPGKGLEWVSDINSGGGSTSYADSVKGRFTISRDNAKNTLYLQMNSLKPEDTAVYYCAKDMRLYLARYNDYEAWDYWGQGTQVTVSS VL: SSALTQPSALSVTLGQTAKITCQGGSLGSSYAHWYQQKPGQAPVLVIYDDDSRPSGIPERFSGSSSGGTATLTISGAQAEDEGDYYCQSADSSGNAAVFGGGTHLTVL | 2

Next binder, scatter score 0-4, HPAF-II, 9.000 nM to be filled in.
Exercise: Looking for the measured scatter score 0-4, HPAF-II, 9.000 nM of 71A3 chimeric llama-human IgG1 mAb (antibody, V domains shown, llama VH on human IgG1 CH1-CH2-CH3, llama VL on human lambda CL) VH: EVQLVESGGGLVQPGGSLRLSCAASGFSFKDYDITWVRQAPGKGLEWVSTITSRSGSTSYVDSVKGRFTISGDNAKNTLYLQMNSLKPEDTAVYYCAKVYATTWDVGPLGYGMDYWGKGTLVTVSS VL: SYELTQPSALSVTLGQTAKITCQGGSLGSSYAHWYQQKPGQAPVLVIYDDDSRPSGIPERFSGSSSGGTATLTISGAQAEDEGDYYCQSADSSGNAAVFGGGTHLTVL , can you help?
Solution: 4
